Test system: CX-1 Human Colon Carcinoma
Assay: In vitro IC50, adhering monolayer culture, neutral red staining, inhibition of cell growth
Format: cell-based
Settings: 3 hours drug exposure under red light, then about 7 days growth (four cell-doubling times), neutral red absorbence at 540 nm, read-out: IC₅₀ CX-1 Human Colon Carcinoma
Source text: The following is the procedure carried out in ascertaining the IC₅₀ concentrations of the thiorhodamines of this invention. (IC₅₀ is the in vitro molar concentration that inhibits 50% of tumor growth. The smaller the concentration, the higher the toxicity.): For the IC₅₀ values for the human colon carcinoma and the human lung carcinoma lines, an adhering monolayer culture was used. […] The absorbence of each well was quantitated using a Perkin-Elmer absorbence densitometer set at 540 nm. […]
# IC50 per entry
parameter: IC50 (nM)

In [3]: df
Out[3]:
                           substance_smiles  value_relation_sign  measured_result
0  COC(=O)c1ccccc1-c1c2ccc(=N)cc-2oc2cc(N)ccc12                    >            12500
1  COC(=O)c1ccccc1-c1c2ccc(N(C)C)cc2[s+]c2cc(N(C)C)ccc12                    =              810
